These data points were gathered from PubChem BioAssay AID1159580.

# EXPERIMENTAL_PROTOCOL: chemical genetic growth profiling, strain panel (AID 1159580);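 further: tested at 20 µM; growth read once vehicle control cultures reached saturation at 30 °C; 1 = growth at the plate median or of vehicle wells; lower values mean less growth of the strain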
# ASSAY_CONTEXT: S. cerevisiae deletion strains, growth OD, locus YJL168C, strain set2, stronger effect = lower value
The campaign covered roughly 5,500 compounds. About 2,000 (36%) were called active. Another 18% or so got no clear call; they are omitted. The list shows a part of the results.
PROPERTY: normalized growth
Give the figure by itself; no unit, no explanation.

The following molecules have reported results that may help.
[[record]]
molecule = "C=C1C2CC[C@@]3(C)[C@H](c4ccoc4)OC(=O)C[C@]13O[C@H]1CC(O)C(C)(C)C(CC(=O)OC)[C@@]21C (some centres undefined)"
property = "normalized growth"
value = 1.01

[[record]]
molecule = "OC1=Cc2c(O)cc(O)cc2OC1(O)c1ccc(O)c(O)c1 (centres undefined)"
property = "normalized growth"
value = 0.991


Asked: Fill in: normalized growth of C=C1C2CCC3(C)C(c4ccoc4)OC(=O)CC13OC1CC(OC(C)=O)C(C)(C)C(CC(=O)OC)C12C (centres undefined) is ___
Given back: 0.998

Asked: Please look up its normalized growth: `Cc1nc2ccccn2c(=O)c1CCN1CCC(C(=O)c2ccc(F)cc2)CC1`
Given back: 0.99

Asked: Requested field: normalized growth. Item: `Cc1cc(O)c(C)c2c1C(=O)Oc1c(C)c(O)c(C(=O)O)c(C)c1O2`
Given back: 0.974

Asked: Quick check: normalized growth of `O=C(Nc1ccccc1)c1ccccc1O` ?
Given back: 0.992

Asked: Which value of normalized growth has been reported for `CN(C)C(=O)Nc1ccc(Cl)c(Cl)c1` in the records?
Given back: 1

Asked: // lookup normalized growth for CC1(C)C(=O)C=C[C@@]2(C)C1CC(=O)[C@@]1(C)C3=CC(=O)O[C@@H](c4ccoc4)[C@]3(C)CCC12 (some centres undefined)
Given back: 0.998

Asked: Look up normalized growth for this molecule: `C=C[C@H]1CN2CC[C@H]1C[C@@H]2[C@H](O)c1ccnc2ccccc12`
Given back: 0.983

Asked: What measured normalized growth goes with COC(=O)CCC(=O)O[C@H]1CCC2(C)C(CCC3C2C(=O)[C@@H](O)C2(C)C3CC3OC4(CCC(C)CO4)[C@@H](C)C32)C1 (some centres undefined) ?
Given back: 0.994

Asked: What value of measured normalized growth is listed for `COc1cc([C@@H]2c3cc4c(cc3[C@H](OC(C)=O)[C@H]3COC(=O)[C@@H]23)OCO4)cc(OC)c1OC` ?
Given back: 1.02
